molecular target: spermidine/spermine N1-acetyltransferase (SSAT) (Rattus norvegicus); experiment: SSAT-mediated N-acetylation enzyme kinetics in plateable cryopreserved primary rat hepatocytes (LC/MS/MS, Lineweaver-Burk); settings: rat
Sequence (Q6P9U6 1-171): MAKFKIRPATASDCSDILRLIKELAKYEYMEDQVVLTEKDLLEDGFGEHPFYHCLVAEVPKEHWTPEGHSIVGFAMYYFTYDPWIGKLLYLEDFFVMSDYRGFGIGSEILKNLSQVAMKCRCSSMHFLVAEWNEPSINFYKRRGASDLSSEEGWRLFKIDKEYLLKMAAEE
assay-metric: Km at 24 h (µM)
Hi! Could you send only the number? It should be in µM, unit omitted.

Qu. # value lookup — system spermidine/spermine N1-acetyltransferase (SSAT) (Rattus norvegicus), readout Km at 24 h, item CC(N)C12CC3CC(CC(C3)C1)C2 (stereo not shown)
Ans. 1840

----------
target: spermidine/spermine N1-acetyltransferase (SSAT) (Rattus norvegicus); experiment: SSAT-mediated N-acetylation enzyme kinetics in plateable cryopreserved primary rat hepatocytes (LC/MS/MS, Lineweaver-Burk); conditions: confirmatory experiment; primary rat hepatocytes; 24-hour incubation; Lineweaver-Burk estimate
Provide the recorded Vmax of N-acetylation by SSAT for the entries that follow.
Hi! Could you send only the number? It should be in pmol/min/million cells, unit omitted.

Qu. Return reported Vmax of N-acetylation by SSAT; argument: Cc1cccc(C)c1NC(=O)C(C)N (stereo not shown) [tocainide]
Ans. 0.617

Qu. Return reported Vmax of N-acetylation by SSAT; argument: NCCCCNCCCN
Ans. 7.21

Qu. Return reported Vmax of N-acetylation by SSAT; argument: NC12CC3CC(CC(C3)C1)C2
Ans. 0.00197

Qu. Return reported Vmax of N-acetylation by SSAT; argument: CC(N)C12CC3CC(CC(C3)C1)C2 (stereo not shown)
Ans. 0.364
